# experimentalSystem: UniProtKB P05067
# protocol: Th-T (thioflavin-T) assay of Aβ42 aggregation
# Type: biochemical
# testParameters: time-course reading M106; Supplementary Fig. 47 source data
Decide using Th-T fluorescence, mean of three wells alone. Strictly below 3: class 1. Equal to or above 3: class 0.

molecule	class
C=C1CCC2C(C)(CCC=C(C)C)C(O)CCC2(C)C1Cc1c(O)c(C)c(C)oc1=O (stereo not drawn) [Compound 9, higginsianin B]	class 1
C=C1CCC2C3(C)CC(C=C(C)C)OC3CCC2(C)C1Cc1c(OC)oc(C)c(C)c1=O (stereo not drawn) [Compound 23]	class 0
C=C1CCC2C(C)(CC(=O)C=C(C)C)C(O)CCC2(C)C1Cc1c(OC)oc(C)c(C)c1=O (stereo not drawn) [Compound 25]	class 0
C=C1CC[C@H]2[C@]3(C)C[C@H](C=C(C)C)O[C@H]3CC[C@]2(C)[C@@H]1Cc1c(OC)oc(CO)c(C)c1=O [Compound 18]	class 0
C=C1CCC2C(C)(CCC=C(C)C)C(O)CCC2(C)C1Cc1c(OC)oc(C)c(C)c1=O (stereo not drawn) [Compound 11]	class 0

Please state whether Th-T fluorescence, mean of three wells is below 3 for C=C1CCC2C(C)(CCC=C(C)C)C(=O)CCC2(C)C1Cc1c(O)c(C)c(C)oc1=O (stereo not drawn) [Compound 8] class 1

Please state whether Th-T fluorescence, mean of three wells is below 3 for C=C1CCC2C(C)(CCC=C(C)C)C(O)CCC2(C)C1Cc1c(OC)oc(C)c(C(=O)OC)c1=O (stereo not drawn) [Compound 14] class 1

Please state whether Th-T fluorescence, mean of three wells is below 3 for C=C1CC[C@H]2[C@]3(C)C[C@H](C=C(C)C)O[C@H]3CC[C@]2(C)[C@@H]1Cc1c(OC)oc(C)c(C)c1=O [Compound 24] class 0

Please state whether Th-T fluorescence, mean of three wells is below 3 for C=C1CC[C@@H]2[C@](C)(CC[C@H]3O[C@H](C=C(C)C)C[C@@]23C)[C@@H]1Cc1c(OC)oc(CO)c(C)c1=O [Compound 20] class 0

Please state whether Th-T fluorescence, mean of three wells is below 3 for C=C1CCC2C(C)(CCC=C(C)C)C(O)CCC2(C)C1Cc1c(O)c(C)c(C)oc1=O (stereo not drawn) [Compound 4] class 1

Please state whether Th-T fluorescence, mean of three wells is below 3 for C=C1CCC2C(C)(CCC=C(C)C)C(O)CCC2(C)C1Cc1c(OC)oc(C)c(C)c1=O (stereo not drawn) [Compound 15, viridoxin A hydrolysate] class 0

Please state whether Th-T fluorescence, mean of three wells is below 3 for C=C1CCC2C(C)(CC(=O)C=C(C)C)C(O)CCC2(C)C1Cc1c(O)c(C)c(C)oc1=O (stereo not drawn) [Compound 7] class 0

----------
# Th-T fluorescence, mean of three wells (Fig. 7a) per record follows
# experimentalSystem: Aβ42 (Homo sapiens)
# Sequence (P05067 672-713): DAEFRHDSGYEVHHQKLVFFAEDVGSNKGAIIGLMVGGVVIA
# protocol: Th-T (thioflavin-T) assay of Aβ42 aggregation
# Type: biochemical
# testParameters: column suffix _50; measurement M23
The response must contain the number and no unit.

compound	valueReported
C=C1CC[C@@H]2[C@](C)(CC[C@H]3O[C@H](C=C(C)C)C[C@@]23C)[C@@H]1Cc1c(OC)oc(CO)c(C(=O)OC)c1=O	0.2107
C=C1CCC2C(C)(CCC=C(C)C)C(O)CCC2(C)C1Cc1c(OC)oc(CO)c(C(=O)OC)c1=O (stereo not shown)	0.2968
C=C1CCC2C(C)(CCC=C(C)C)C(O)CCC2(C)C1Cc1c(OC)oc(CO)c(C)c1=O (stereo not shown)	1.672

Here's the next entry for you.
Item C=C1CCC2C(C)(CCC=C(C)C)C(O)CCC2(C)C1Cc1c(OC)oc(C)c(C(=O)OC)c1=O (stereo not shown) : provide Th-T fluorescence, mean of three wells (Fig. 7a) 0.669
